Tested on: MAPKAPK2
Design: species or system human, MV4-11 + K-562 + COLO205 + SK-N-BE2 + OVCAR-8
assay conditions: read-out: apparent Kd; compound concentrations:100 nM and 1000 nM (sheet 'Samples'); n = 1
Rule: potency estimated from few doses below 10 nM gives yes (1), anything at or above gives no (0).

* Cn1c(=O)c(-c2ccccc2Cl)cc2cnc(NC3CCOCC3)nc21 [RO3303470-000] | no (0)

Query :: Regarding Cc1ccc(-n2nc(C(C)(C)C)cc2NC(=O)Nc2ccc(OCCN3CCOCC3)c3ccccc23)cc1 [GW839464X] , kindly confirm whether its potency estimated from few doses is beneath 10 nM.
Result :: no (0)

Query :: Regarding CN1CCC(n2cnc(-c3ccc(F)cc3)c2-c2ccnc(N)n2)CC1 [SB-220455] , kindly confirm whether its potency estimated from few doses is beneath 10 nM.
Result :: yes (1)

Query :: Regarding Nc1c(C(=O)c2ccccc2)cnn1-c1ccc(F)cc1 [RO1151246-000] , kindly confirm whether its potency estimated from few doses is beneath 10 nM.
Result :: no (0)

Query :: Regarding Cl.Cn1c(=O)c(Oc2ccc(F)cc2F)cc2cnc(N[C@H]3CC[C@H](O)CC3)nc21 [RO3305413-001] , kindly confirm whether its potency estimated from few doses is beneath 10 nM.
Result :: yes (1)

Query :: Regarding COCCNC(=O)c1ccc(-c2cc(C(=O)NC3CC3)cc(F)c2C)cc1 [GW868318X] , kindly confirm whether its potency estimated from few doses is beneath 10 nM.
Result :: no (0)

Query :: Regarding FC(F)(F)c1ccccc1-c1cc(-c2c[nH]nc2-c2ccccn2)ccn1 [GW679396X] , kindly confirm whether its potency estimated from few doses is beneath 10 nM.
Result :: no (0)

Query :: Regarding Fc1ccc(-c2ncn(C3CCNCC3)c2-c2ccnc(Oc3ccc(F)c(F)c3)n2)cc1 [SB-253228] , kindly confirm whether its potency estimated from few doses is beneath 10 nM.
Result :: no (0)

Query :: Regarding O=c1[nH]c2nc(NC3CCOCC3)ncc2cc1Oc1ccc(F)cc1F [RO3310867-000] , kindly confirm whether its potency estimated from few doses is beneath 10 nM.
Result :: yes (1)

Query :: Regarding Cl.NCc1ccc(-c2nc(-c3ccc(Cl)c(O)c3)c(-c3ccncc3)[nH]2)cc1 [SB-476429-A] , kindly confirm whether its potency estimated from few doses is beneath 10 nM.
Result :: no (0)

Query :: Regarding c1ccc(-c2n[nH]cc2-c2ccnc3ccccc23)nc1 [GW271431X] , kindly confirm whether its potency estimated from few doses is beneath 10 nM.
Result :: no (0)

Query :: Regarding Nc1nc(-c2cccc(Cl)c2)c(-c2ccc3ncccc3n2)s1 [GW780159X] , kindly confirm whether its potency estimated from few doses is beneath 10 nM.
Result :: no (0)

Query :: Regarding C[C@@H](Cn1ncnn1)Nc1ncc2cc(Oc3ccc(F)cc3F)c(=O)n(C)c2n1 [RO5067310-000] , kindly confirm whether its potency estimated from few doses is beneath 10 nM.
Result :: yes (1)

Values from paper PMC11062922
